- TEST_DESCRIPTION: Test 2: Pharmacokinetic test in rats
- Format: in vivo, rat
- APPLIED_CONDITIONS: rat, blood, po, 15 mg/kg, Rat-1, oral 15 mg/kg, 120 min; read-out: Blood concentration
PROPERTY_LABEL: concentration at 2 h (ng/mL)
Give bare numbers, in ng/mL.

Looking up CN(C(=O)[C@H](Cc1ccc(C(=N)NN)cc1)NS(=O)(=O)c1ccc2ccccc2c1)C1CCCC1 , I found its concentration at 2 h recorded as 34

----------
- TEST_DESCRIPTION: Test 2: Pharmacokinetic test in rats
- Type: in vivo, rat
- APPLIED_CONDITIONS: rat, blood, po, 15 mg/kg, Rat-2, oral 15 mg/kg, 60 min; read-out: Blood concentration
PROPERTY_LABEL: concentration at 1 h (ng/mL)
Give bare numbers, in ng/mL.

Looking up CN(C(=O)[C@H](Cc1ccc(C(=N)NN)cc1)NS(=O)(=O)c1ccc2ccccc2c1)C1CCCC1 , I found its concentration at 1 h recorded as 123
